GI50 for assorted compounds
System: K562
Measurement notes: NCI tumour cell line growth inhibition, 48 h
Active and inactive are the calls of the source. Rule as the data show it: active = GI50 up to about 1.1 µM and inactive = higher.

*Q* Entry under review: `CC(=O)c1sc(=N)n(-c2c(C)cccc2C)c1C` . Reported GI50?
*A* > 100 µM (inactive)

*Q* Entry under review: CCOC(=O)c1cc2c3c(c(C(C)=O)c(O)c2[nH]1)N(CC(C)CC)CC3 (stereo unspecified) . Reported GI50?
*A* 32.5 µM (inactive)

*Q* Entry under review: CCOc1ccc(NC(=O)CC2SC(Nc3ccc(C)cc3C)=NC2=O)cc1 (stereo unspecified) . Reported GI50?
*A* 52 µM (inactive)

*Q* Entry under review: CC(C)C(NC(=O)C(Cc1ccccc1)NC(=O)[C@H]1CCC[C@H]1NC(=O)C(N)Cc1ccc(O)cc1)C(N)=O (stereo partly specified) . Reported GI50?
*A* > 100 µM (inactive)

Continuing:
*Q* Entry under review: OC1(c2ccc(Cl)cc2)C(N2CCCC2)c2ccccc2C2=NCCN21 (stereo unspecified) . Reported GI50?
*A* 13.6 µM (inactive)

*Q* Entry under review: `C#CCn1c(=O)c(C#N)c(O)c2cc3ccccc3nc21` . Reported GI50?
*A* > 100 µM (inactive)

*Q* Entry under review: `C=C[C@@]1(C)CC(=O)[C@]2(O)[C@@]3(C)[C@@H](OC(C)=O)CCC(C)(C)[C@@H]3[C@H](OC(C)=O)[C@H](OC(C)=O)[C@@]2(C)O1` . Reported GI50?
*A* > 100 µM (inactive)

----------
Tested on: SF-295
Measurement notes: NCI tumour cell line growth inhibition, 48 h
Activity calls are given as the source filed them. Cut-off read from the data, not from the text of the source: active = GI50 up to about 1.1 µM and inactive = higher.
// allowed return values: yes (1) = active, no (0) = inactive

*Q* GET /call?item= `C[C@H]1CC[C@@H]2[C@@H](C)[C@H]3[C@H](C[C@H]4[C@@H]5CC=C6C[C@@H](O)CC[C@]6(C)[C@H]5C[C@H](O)[C@]34C)N2C1` returns the recorded outcome of this test.
*A* no (0)

*Q* GET /call?item= CC(=O)NC(C)(C)C1CCC(C)CC1 (stereo not drawn) returns the recorded outcome of this test.
*A* no (0)

*Q* GET /call?item= `COc1ccc(-c2onc(-c3c(C)cc(C)cc3C)c2C2=NCCCN2)cc1` returns the recorded outcome of this test.
*A* no (0)

Continuing:
*Q* GET /call?item= O=C1OC(c2cccc(C(F)(F)F)c2)c2ccc3ccccc3c21 (stereo not drawn) returns the recorded outcome of this test.
*A* no (0)

*Q* GET /call?item= `Cc1ccc(C)c2sc3cc(=O)ccc-3nc12` returns the recorded outcome of this test.
*A* no (0)

*Q* GET /call?item= CC12CCC(CC(=O)/C1=C(/Br)I)C2(C)C (stereo not drawn) returns the recorded outcome of this test.
*A* yes (1)

*Q* GET /call?item= `CC1(C)Cc2c(c3ccccc3c3nc4c(nc23)c2c(c3ccccc34)OC(C)(C)C2)O1` returns the recorded outcome of this test.
*A* no (0)

*Q* GET /call?item= `CC(C)(C)C1(COC(=O)c2ccc(N)cc2)COC1` returns the recorded outcome of this test.
*A* no (0)

----------
Test system: LXFL 529
Measurement notes: NCI tumour cell line growth inhibition, 48 h
Activity calls are given as the source filed them. Rule as the data show it: active = GI50 up to about 1.1 µM and inactive = higher.
GI50 for assorted compounds

These solved cases illustrate the format of a correct answer.
*Q* Entry under review: COC(=O)C1=C(C)N(NC(=O)c2cccc(Cl)c2)C(C)(O)C12CCOC2=O (configuration not stated) . Reported GI50?
*A* > 100 µM (inactive)

*Q* Entry under review: `[N-]=[N+]=Nc1ccc(CCN2CCN(c3cccc(C(F)(F)F)c3)CC2)cc1I` . Reported GI50?
*A* 50 µM (inactive)

*Q* Entry under review: `CCO/C=C1\N=C(c2ccccc2Br)OC1=O` . Reported GI50?
*A* > 100 µM (inactive)

*Q* Entry under review: CCCCCCC(/C=N/O)C(C)(O)CCC (configuration not stated) . Reported GI50?
*A* > 100 µM (inactive)

Continuing:
*Q* Entry under review: O=C(Nc1cc(Cl)c(Cl)cc1Cl)C(=O)C1C=CCS1(=O)=O (configuration not stated) . Reported GI50?
*A* > 100 µM (inactive)

*Q* Entry under review: `COC(=O)c1ccccc1OCc1cc(=O)oc2ccc(C)cc12` . Reported GI50?
*A* 85.7 µM (inactive)

*Q* Entry under review: `COc1ccccc1/N=N/C(C(=O)c1ccccc1)C(=O)c1ccccc1` . Reported GI50?
*A* 15.5 µM (inactive)

These entries and their values trace back to ChEMBL document CHEMBL1201862.
